Ref: PubChem BioAssay

assay: inhibitors of TNFa-induced NFkB p65 translocation, primary screen, imaging, HUVEC, MLSMR starter and 10KST1 sets (AID 438);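 note: compound added about 3h40 before a 20 min TNFalpha stimulation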
experimental context: HUVEC TNFa-induced p65 nuclear translocation; measured here: nuclei count (cytotoxicity indicator), at 2.08 µM
Record T whenever cell count is at 600 or higher; record F when lower.

{"compound": "COc1ccc(C2CC(c3ccco3)n3ncnc3N2)cc1 (stereo unspecified)", "qualitative label": "F"}
{"compound": "CCCNC(=O)NC(C(=O)OC)C12CC3CC(CC(C3)C1)C2 (stereo unspecified)", "qualitative label": "F"}
{"compound": "COc1cc2c(=O)nc3n(c2cc1OC)C(c1ccccc1)N=C(N)N3 (stereo unspecified)", "qualitative label": "F"}
{"compound": "COc1ccc(N2CCN(CCCNC(=O)C3(S(=O)(=O)c4ccc(Cl)cc4)CC3)CC2)cc1", "qualitative label": "F"}
{"compound": "O=C1NC(Cc2c[nH]c3ccccc23)C(=O)N1CCOc1ccccc1 (stereo unspecified)", "qualitative label": "T"}
{"compound": "COc1ccc2oc(=O)c(C(=O)N3CCN(c4ccccc4F)CC3)cc2c1", "qualitative label": "F"}
{"compound": "COc1ccccc1Oc1coc2c(CN3CCN(C)CC3)c(O)ccc2c1=O", "qualitative label": "F"}
{"compound": "O=C(Nc1ccccc1N1CCCCC1)c1ncoc1-c1ccc(F)cc1", "qualitative label": "F"}
{"compound": "Cc1ccc(-c2cc(C(=O)Nc3cc(C)on3)c3ccccc3n2)c(C)c1", "qualitative label": "T"}
{"compound": "O=C(Nc1ncc(Cc2ccccc2)s1)C1CCCO1 (stereo unspecified)", "qualitative label": "F"}
{"compound": "Cc1ccc(C2C(C(=O)c3sc(C)nc3C)=C(O)C(=O)N2CCN(C)C)o1 (stereo unspecified)", "qualitative label": "F"}
{"compound": "O=S(=O)(NCC1CCCO1)c1ccc2c(c1)OCCO2 (stereo unspecified)", "qualitative label": "F"}
{"compound": "COc1ccccc1NC(=O)NCCCN1CCN(c2cccc(Cl)c2)CC1", "qualitative label": "T"}
{"compound": "Cc1ccc(N2C(=O)c3ccccc3C2Nc2cccnc2)nc1 (stereo unspecified)", "qualitative label": "F"}
{"compound": "CCOC(=O)CNC(=O)CSc1nnnn1-c1cc(C)ccc1C", "qualitative label": "F"}
{"compound": "CCOC(=O)CSc1nnc(-c2ccc(NS(=O)(=O)c3ccc(C)cc3)cc2)o1", "qualitative label": "T"}
{"compound": "Cc1ccccc1OCCn1c(=O)oc2ccccc21", "qualitative label": "F"}
{"compound": "CCc1nnc(NC(=O)c2ccc(COc3ccc(C)cc3)o2)s1", "qualitative label": "F"}
{"compound": "O=C(c1ccc(Cl)c(F)c1F)N1CCCC1", "qualitative label": "F"}
{"compound": "Cc1cc2nc(C3CCN(CC4COc5ccccc5O4)CC3)[nH]c2cc1C (stereo unspecified)", "qualitative label": "T"}
{"compound": "COc1ccc(-n2ccnc2SCC(=O)NCc2ccc3c(c2)OCO3)cc1", "qualitative label": "F"}
{"compound": "O=C(c1ccccc1Cl)N1CCc2ccccc2C1", "qualitative label": "T"}
{"compound": "CCOc1ccc(S(=O)(=O)n2nc(C)cc2C)c2ccccc12", "qualitative label": "F"}
{"compound": "Cc1ccc(N2C(=O)c3oc4ccccc4c(=O)c3C2c2cccc(O)c2)nc1 (stereo unspecified)", "qualitative label": "T"}
{"compound": "COc1ccc(OC)c(C(C)NC=O)c1 (stereo unspecified)", "qualitative label": "F"}
{"compound": "CCOC(=O)C1=C(C)NC2=C(C(=O)CC(C)(C)C2)C1c1ccc(N(C)C)cc1 (stereo unspecified)", "qualitative label": "F"}
{"compound": "CC1(C)CC(=O)C2=C(C1)NC(=O)CC2c1ccc(N(CCC#N)CCC#N)cc1 (stereo unspecified)", "qualitative label": "F"}
{"compound": "CCCc1nnc(SCC(=O)N2CCOCC2)n1Cc1ccco1", "qualitative label": "T"}
{"compound": "O=C(Nc1ccncc1)C1CCCN(S(=O)(=O)c2cccc3cccnc23)C1 (stereo unspecified)", "qualitative label": "T"}
{"compound": "CN1CCN(C(c2cccc(C(F)(F)F)c2)c2nnnn2C(C)(C)C)CC1 (stereo unspecified)", "qualitative label": "F"}
{"compound": "CCOc1cc(C2CC(=O)N3CN(C4CCCCC4)CSC3=C2C#N)ccc1O (stereo unspecified)", "qualitative label": "T"}
{"compound": "COC(=O)c1ccc(NC(=O)CN2CCN(c3ccc(Cl)cc3)CC2)cc1", "qualitative label": "F"}
{"compound": "Cc1cccc(NC(=O)CC(C)(C)C)c1", "qualitative label": "F"}
{"compound": "Cc1ccc(C(=O)N2CCCC(c3nc4c(nnn4Cc4ccccc4)c(=O)[nH]3)C2)cc1 (stereo unspecified)", "qualitative label": "T"}
{"compound": "CC(C)c1nnc(NC(=O)CCC(=O)NCc2ccc3c(c2)OCO3)s1", "qualitative label": "F"}
{"compound": "CCCS(=O)(=O)N1CCCC(C(=O)NC2CCCC(C)C2C)C1 (stereo unspecified)", "qualitative label": "F"}
{"compound": "COC(=O)COc1cccc(NC(=O)COc2ccccc2)c1", "qualitative label": "F"}
{"compound": "COc1ccc(OC)c(NC(=O)c2nnn(Cc3ccc(Br)cc3F)c2N)c1", "qualitative label": "T"}
{"compound": "N#CCCN(C(=O)Nc1ccc(Cl)cc1)c1ccccc1", "qualitative label": "F"}
{"compound": "O=C(CCn1c(=S)[nH]c2ccccc2c1=O)NCC1CCCO1 (stereo unspecified)", "qualitative label": "F"}
{"compound": "O=C1N(c2ccccc2)C2CS(=O)(=O)CC2N1c1ccc(Br)cc1 (stereo unspecified)", "qualitative label": "F"}
{"compound": "CC(=O)NC(CCS(C)(=O)=O)C(=O)Nc1cccc2ccccc12 (stereo unspecified)", "qualitative label": "T"}
{"compound": "Cc1ccc(C(=O)CSc2n[nH]c(-c3ccco3)n2)cc1C", "qualitative label": "F"}
{"compound": "CCN(C(=O)CCc1nc(-c2ccccc2F)no1)c1cc(OC)ccc1OC", "qualitative label": "F"}

* * *

assay: endothelial E-selectin expression blockers – imaging, HUVEC, immunofluorescence, MLSMR starter and 10KST1 sets, primary screen (AID 487);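 note: signal is fraction of cell area covered by stained E-selectin grains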
experimental context: HUVEC TNFalpha-induced E-selectin immunofluorescence imaging, at 2 µM; stronger effect = higher value
Give true (1) when the value for inhibition is at least -40%. Give false (0) when it is less.

{"compound": "CCOC(=O)N1CCN(C(=O)c2ccc3nc4ccsc4c(=O)n3c2)CC1", "qualitative label": "true (1)"}
{"compound": "CCOCCc1nnc(NC(=O)c2ccc(OC)c(OC)c2)s1", "qualitative label": "false (0)"}
{"compound": "Cn1c(SCC(=O)c2cc3ccccc3o2)nnc1-c1ccccc1", "qualitative label": "false (0)"}
{"compound": "Cc1ccc(C(=O)CSc2n[nH]c(-c3ccco3)n2)cc1C", "qualitative label": "true (1)"}
{"compound": "C=CCNC(=O)CSc1nc2sc(C)c(C)c2c(=O)[nH]1", "qualitative label": "true (1)"}
{"compound": "CCOc1ccccc1NC(=O)CSc1nnc(Cc2cccn2C)n1-c1ccc(F)cc1", "qualitative label": "false (0)"}
{"compound": "O=C(NCCCCNC(=O)c1c(F)c(F)c(F)c(F)c1F)c1c(F)c(F)c(F)c(F)c1F", "qualitative label": "false (0)"}
{"compound": "CC(C)(C)c1ccc(C(=O)Nc2cnccn2)cc1", "qualitative label": "true (1)"}
{"compound": "O=c1c2cc(Cl)ccc2[nH]c(=S)n1Cc1ccco1", "qualitative label": "true (1)"}
{"compound": "CC(Sc1nc(-c2ccccc2)cc(C(F)(F)F)n1)C(=O)N1CCCC1 (centres undefined)", "qualitative label": "false (0)"}
{"compound": "Cc1nn(-c2ccccc2)c2sc(C(=O)N3CCOCC3)cc12", "qualitative label": "true (1)"}
{"compound": "CCn1nc(C(=O)OCC(=O)N2CCc3ccccc32)c2ccccc2c1=O", "qualitative label": "true (1)"}
{"compound": "CCOC(=O)C1CCN(C(=O)COc2ccc(S(=O)(=O)NC(C)C)cc2Cl)CC1", "qualitative label": "true (1)"}
{"compound": "COC(=O)c1ccc(CSc2nnc(-c3ccncc3)o2)o1", "qualitative label": "true (1)"}
{"compound": "CC1C(=O)C(C)C(c2cccs2)NC1c1cccs1 (centres undefined)", "qualitative label": "true (1)"}
{"compound": "CCN(CC(=O)Nc1c(C(=O)OC)[nH]c2ccccc12)c1ccc2c(c1)OCO2", "qualitative label": "false (0)"}
{"compound": "Cc1nc(N)c(C#N)c(-c2cccnc2)c1C", "qualitative label": "true (1)"}
{"compound": "CSc1ccc(S(=O)(=O)Nc2cccc(F)c2)cc1", "qualitative label": "true (1)"}
{"compound": "CC(=O)Nc1ccc2c(c1)nc(CCNC(=O)c1ccccc1)n2C", "qualitative label": "false (0)"}
{"compound": "Cc1ccc(SC(C)c2nc(-c3ccccc3)no2)cc1 (centres undefined)", "qualitative label": "true (1)"}
{"compound": "CC(=O)c1cn(CC(=O)NCc2ccc3c(c2)OCO3)c2ccccc12", "qualitative label": "true (1)"}
{"compound": "Cc1ccc(OCCC(=O)OCC(=O)C(C)(C)C)cc1", "qualitative label": "true (1)"}
{"compound": "Cc1cc(C)c(C#N)c(SCc2ccc(C#N)cc2)n1", "qualitative label": "true (1)"}
{"compound": "CSc1oc(-c2ccccc2)nc1S(=O)(=O)c1ccc(F)cc1", "qualitative label": "false (0)"}
